Target: OsWOX13 (Oryza sativa, UniProt Q5QMM3 1-267)
Sequence: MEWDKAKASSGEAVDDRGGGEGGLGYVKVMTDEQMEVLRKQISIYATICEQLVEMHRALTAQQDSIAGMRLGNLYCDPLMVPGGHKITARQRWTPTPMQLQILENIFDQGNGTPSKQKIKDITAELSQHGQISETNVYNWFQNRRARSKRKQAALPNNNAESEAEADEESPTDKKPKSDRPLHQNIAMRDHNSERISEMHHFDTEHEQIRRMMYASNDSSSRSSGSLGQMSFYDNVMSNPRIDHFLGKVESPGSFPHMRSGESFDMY
Experiment: protein-binding microarray (RPBM); PBS, 2% BSA, 51.3 ng/ul salmon testes DNA, 50 uM zinc acetate, 200 nM TF, 25 C, 1 h; high values mean tight binding
Details: protein: recombinant; tags: N-terminal polyhistidine and DsRed monomer fusion (pET32a); label: CyDye5-dUTP incorporated in the synthesized complementary strand; 3' TTTTT single-stranded linker to array surface; dsDNA, one strand shown
Whole data set: some 35,000 sequences, median “fluorescence intensity (a.u.)” near 10,000, cut for the highest 2% near 52,000. The full list was thinned out, with the highest values kept by preference.
measureName: binding signal

Asked: What measured binding signal goes with TGATTGATTGCTTGATTGGGAGTGTCCTTTGGGCGAGCTGCGGAGTCACCTAGTGCAG ?
Given back: 64900 fluorescence intensity (a.u.)

Asked: Look at this sequence and give its reported binding signal. ATGATTGAATGAATGAAACCCTAGTTTGTTTTGATTTGTACGGAGTCACCTAGTGCAG
Given back: 54400 fluorescence intensity (a.u.)

Asked: I would be grateful if you could share the reported binding signal for GTGATTGACTGATTGTGTGATTGTGTGAAGTGTATTGGTTCGGAGTCACCTAGTGCAG .
Given back: 65000 fluorescence intensity (a.u.)

Asked: # lookup: binding signal of CCAAATTCATTAAAATTAACAATAACAATTATATTTGTTTCGGAGTCACCTAGTGCAG
Given back: 10900 fluorescence intensity (a.u.)

Continue with the next sequence.
Asked: Fill in the blank: the reported binding signal of GCTAATTAAATTAATAATTCATCTTAGGAATCACAGCGTCCGGAGTCACCTAGTGCAG is ____.
Given back: 39000 fluorescence intensity (a.u.)

###

Target: OsWOX13 (Oryza sativa, UniProt Q5QMM3 1-267)
Sequence: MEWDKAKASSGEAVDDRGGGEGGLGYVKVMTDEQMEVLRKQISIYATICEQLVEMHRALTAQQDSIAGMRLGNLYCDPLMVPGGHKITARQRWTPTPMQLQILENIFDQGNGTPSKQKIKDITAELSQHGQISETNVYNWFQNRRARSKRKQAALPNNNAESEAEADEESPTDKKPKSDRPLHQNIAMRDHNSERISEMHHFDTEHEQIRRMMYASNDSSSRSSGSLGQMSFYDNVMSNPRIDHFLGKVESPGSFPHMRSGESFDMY
Assay: protein-binding microarray (RPBM); PBS, 2% BSA, 51.3 ng/ul salmon testes DNA, 50 uM zinc acetate, 200 nM TF, 25 C, 1 h; high values mean tight binding
Conditions: protein: recombinant; tags: N-terminal polyhistidine and DsRed monomer fusion (pET32a); label: CyDye5-dUTP incorporated in the synthesized complementary strand; 3' TTTTT single-stranded linker to array surface; dsDNA, one strand shown
In all, about 35,000 sequences were measured (“fluorescence intensity (a.u.)”: median about 10,000, highest 2% from about 52,000 on). Shown is part of a subset that was picked to be rich in the highest values.
# binding signal annotations

Asked: What binding signal value was documented for this sequence, GATTGGTCATAATTATATATATATATTACTTCCTAATCACCGGAGTCACCTAGTGCAG ?
Given back: 6390 fluorescence intensity (a.u.)

Asked: Suppose we examine the sequence AAAATAAATAAATAAATTTGGTAACATTGATTAATTAGGACGGAGTCACCTAGTGCAG ; what binding signal value has been reported?
Given back: 21200 fluorescence intensity (a.u.)

Asked: Dear colleague, I am looking for the recorded binding signal of the following sequence: TGATTGGTAATCAATCAATTATTATCATATACTCGCACTGCGGAGTCACCTAGTGCAG
Given back: 62300 fluorescence intensity (a.u.)

Asked: // returns reported binding signal for input GTTGATGTGATGGAAAATGACTGAAGATTGGATCTAAACTCGGAGTCACCTAGTGCAG
Given back: 31100 fluorescence intensity (a.u.)

Asked: Bench note: what binding signal did CTTATATTTGCAAATATTGATGGTTGTTGACATATGAACTCGGAGTCACCTAGTGCAG show?
Given back: 3210 fluorescence intensity (a.u.)

Asked: Recorded binding signal of TTAATTGATTCCATGAAGGTATAATGATACTTTTATGGTACGGAGTCACCTAGTGCAG , please.
Given back: 65000 fluorescence intensity (a.u.)

New cases:
Asked: Name the recorded binding signal for TTATAATTATTTGTGTTGCAATGTATGTTTTGTTTATATACGGAGTCACCTAGTGCAG .
Given back: 9980 fluorescence intensity (a.u.)

Asked: So what does the record say about binding signal for ATGGTTGATTGATTGCATATATTTGAACAAATGATCTTTGCGGAGTCACCTAGTGCAG ?
Given back: 65500 fluorescence intensity (a.u.)

Asked: What binding signal value was documented for this sequence, TCAGACAAATTAAGTTTTAGCTTAGCTTATCACTTAACGGCGGAGTCACCTAGTGCAG ?
Given back: 7680 fluorescence intensity (a.u.)

Asked: Any idea what its binding signal is? The sequence is ATTTGAAATTTAAATTTTAGCTTTTGCTTTAGTTTATTTGCGGAGTCACCTAGTGCAG
Given back: 8720 fluorescence intensity (a.u.)

Asked: Which binding signal is reported for this sequence? ATATATATATATATATATATATATATATTATCGCTAATAACGGAGTCACCTAGTGCAG
Given back: 31200 fluorescence intensity (a.u.)

Asked: binding signal for CATAATGATTGCGTTGAACGTTGGTTGCTTGATCATCTTTCGGAGTCACCTAGTGCAG ?
Given back: 18600 fluorescence intensity (a.u.)

Asked: Could you share which binding signal value was measured for ATCTGTAATTTATTTTATTATTAGTCTACGCTTAATACTTCGGAGTCACCTAGTGCAG ?
Given back: 22000 fluorescence intensity (a.u.)

Asked: Fill blank: measured binding signal of the sequence CCGGATTGCTGGATCATTTTCTTCTCGGCCCATTGGACTCCGGAGTCACCTAGTGCAG is ____.
Given back: 3410 fluorescence intensity (a.u.)

Asked: Looking for the measured binding signal of ACTAAATTGGGTTGGGGTGCCTCCTCCTTCCTTTCTTTCTCGGAGTCACCTAGTGCAG , can you help?
Given back: 21000 fluorescence intensity (a.u.)
